B1: C20orf112 (parent)
chain: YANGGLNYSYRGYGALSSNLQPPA

variants of: B1; test: protein stability index of a GFP-peptide fusion (GPS, HEK-293T) (PSI 1-6); higher = more stable; settings: c terminus: a fixed tail appended;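 also: lentivirally expressed fusions sorted by FACS into six bins by GFP to DsRed ratio, PSI derived from sequencing read proportions per bin multiplied by bin number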
In this section we review reported protein stability index values for a set of variants.
Reply with just the number.

INPUT: Looking for the measured protein stability index of L16S , can you help?
OUTPUT: 2.03

The measured values listed here are drawn from the supplement of paper PMC10567573.
